- Test system: Plasmodium falciparum
- test method notes: GSK_TCMDC: Inhibition of Plasmodium falciparum Dd2 in whole red blood cells, using parasite LDH activity as an index of growth. Test compounds present at 2uM
- Format: functional
Each entry gets condition not met if its Inhibition stays under 70%, and condition met if its Inhibition is 70% or above.

Consider the worked cases shown below.
compound	classification
COc1ccc2c(NN=Cc3cccc(F)c3)ccnc2c1	condition met
COc1cc2nc(N(C)C)nc(Nc3ccc4c(cnn4Cc4ccccc4)c3)c2cc1OC	condition met
Cn1cncc1C(=O)Nc1cccc(-c2ccc(-c3nc4cc(C(F)(F)F)ccc4[nH]3)cc2)c1	condition met
CCc1sc(N2CCC(C)CC2)nc1C(=O)Nc1ccc(F)cc1C(F)(F)F	condition not met

## Input Check the entry O=C(c1cccc(-c2cccc(-c3nc4cc(F)ccc4[nH]3)c2)c1)N1CCCCC1CN1CCC(O)C1 (configuration not stated) : does Inhibition equal or exceed 70%?
## Output condition met

## Input Check the entry `COc1cc(CNCCCNc2nc(=O)c3sccc3[nH]2)c2[nH]cc(Cl)c2c1.CS(=O)(=O)O` : does Inhibition equal or exceed 70%?
## Output condition not met

====

Let's look at some compounds and their measured Inhibition.
- Tested on: Plasmodium falciparum
- test method notes: GSK_TCMDC: Inhibition of Plasmodium falciparum Dd2 in whole red blood cells, using parasite LDH activity as an index of growth. Test compounds present at 2uM
- Type: functional
Just so you know, I need the unit written after the number.

compound	experimental result
COc1cc2c(cc1OCCN1CCC(N3CCCCC3)CC1)N(C(=O)/C=C/c1ccccc1OC(F)(F)F)CC2.Cl	93%

## Input Answer with the recorded Inhibition for the compound listed here: `CC(=O)Nc1cccc(/C=C/C(=O)N2CCC(N3CCCCC3)CC2)c1`
## Output 0%

## Input Answer with the recorded Inhibition for the compound listed here: CCOC(=O)C1=C(C)N=c2sc(=Cc3cc(Cl)ccc3O)c(=O)n2C1c1cc(OC)c(OC)cc1Br (stereo unspecified)
## Output 76%

## Input Answer with the recorded Inhibition for the compound listed here: `COCCn1c(-c2cccc(Cl)c2)nn(-c2ccc([N+](=O)[O-])cc2Cl)c1=S`
## Output 99%

## Input Answer with the recorded Inhibition for the compound listed here: `CC1(C)CCC(C)(C)c2c1ccc(C1CCN(CCCCNC(=O)c3ccc(-c4ccc(C#N)cc4)cc3)CC1)c2OCC(N)=O`
## Output 100%

## Input Answer with the recorded Inhibition for the compound listed here: `COc1ccc2c(=NN=CC=Cc3ccccc3)cc(C)[nH]c2c1`
## Output 56%

## Input Answer with the recorded Inhibition for the compound listed here: `CCCCNC[C@@H](O)[C@H](Cc1ccccc1)NC(=O)c1cc(NCC)cc(N2CCCCS2(=O)=O)c1.Cl`
## Output 98%

## Input Answer with the recorded Inhibition for the compound listed here: `O=C(/C=C/c1ccc(Cl)c(Cl)c1)NC1CCN(CCNC(=O)c2cccc(Cl)c2)CC1.O=C(O)C(F)(F)F`
## Output 45%

## Input Answer with the recorded Inhibition for the compound listed here: O=C(NC1CCN(Cc2ccccc2)C1)c1ccc(Nc2ccc(Br)cc2)nc1.O=C(O)C(F)(F)F (stereo unspecified)
## Output 21%

## Input Answer with the recorded Inhibition for the compound listed here: `COc1cc(C)ccc1S(=O)(=O)N1CCCCC(c2ccc(C(F)(F)F)cc2)=N1`
## Output 89%

## Input Answer with the recorded Inhibition for the compound listed here: `CCCNCc1ccc(-c2ccc(CN(CCOC)C(=O)CCC(=O)c3ccc(OC)c(F)c3)cc2)nc1.O=C(O)C(F)(F)F`
## Output 47%

## Input Answer with the recorded Inhibition for the compound listed here: `Cc1cc(C)c(C(=O)Nc2ccc3nc(C)cc(N)c3c2)c(C)c1.Cl`
## Output 14%

## Input Answer with the recorded Inhibition for the compound listed here: `N#Cc1cc(C(=O)c2cc(Br)ccc2O)cn(C2CCCCC2)c1=O`
## Output 9%

====

- Tested on: HepG2
- test method notes: GSK_TCMDC: Percent inhibition of human HepG2 cell line. Test compounds present at 10uM.
- Format: functional
experimental readout: Inhibition
Just so you know, I need the unit written after the number.

## Input Answer with the recorded Inhibition for the molecule listed here: NCC1CCCN1Cc1cccc(-c2cccc(-c3nc4cc(F)ccc4[nH]3)c2)c1.O=C(O)C(F)(F)F (stereo unspecified)
## Output 10%

## Input Answer with the recorded Inhibition for the molecule listed here: `COc1ccc2nccc(N3CCN(CCNCc4ccc5c(n4)NC(=O)CS5)CC3)c2c1.Cl`
## Output 18%

## Input Answer with the recorded Inhibition for the molecule listed here: `Cc1nc(-c2nc(NCc3ccccn3)ncc2-c2ccsc2)sc1C`
## Output 0%

## Input Answer with the recorded Inhibition for the molecule listed here: `COC(=O)c1cccc(NC(=O)NC2CCN(c3ccnc(NCc4ccc(F)cc4)n3)CC2)c1`
## Output 29%

## Input Answer with the recorded Inhibition for the molecule listed here: `O=C(NC1CCN(Cc2ccc3c(c2)OCCO3)CC1)c1ccc(-c2cccc(C(F)(F)F)c2)s1.O=C(O)C(F)(F)F`
## Output 99%

## Input Answer with the recorded Inhibition for the molecule listed here: `Br.CC1(C)NC(N)=NC(=N)N1OCCCc1cc(Cl)c(Cl)cc1Cl`
## Output 55%

====

- System: Plasmodium falciparum
- test method notes: GSK_TCMDC: Inhibition of Plasmodium falciparum Dd2 in whole red blood cells, using parasite LDH activity as an index of growth. Test compounds present at 2uM
- Assay type: functional
Each entry gets label 0 if its Inhibition stays under 90%, and label 1 if its Inhibition is 90% or above.

Consider the worked cases shown below.
compound	classification
CCc1ccc(CN2CCC(CNC(=O)c3cc(-c4cccc(Cl)c4)cs3)C2)cc1.O=C(O)C(F)(F)F (stereo not drawn)	label 0
O=C(Nc1cccc(-c2cccc(-c3nc4ccccc4[nH]3)c2)c1)Nc1ccc(F)c(F)c1F	label 1
Cc1ccc2c(c1)nc(N)n2C[C@H](O)c1ccccc1	label 0

# ---- query compound ----
## Input Check the entry `Br.N=C1N=C(N)NC2(CCCCC2)N1OCCOc1ccc(Cc2ccccc2)cc1` : does Inhibition equal or exceed 90%?
## Output label 0

====

Let's look at some compounds and their measured Inhibition.
- System: HepG2
- test method notes: GSK_TCMDC: Percent inhibition of human HepG2 cell line. Test compounds present at 10uM.
- Format: functional
Please give a number only; it is taken to be in %.

Solved cases (8 shown):
compound	measurement target	units of measure	Inhibition
COc1ccc(NC(=O)Nc2ccc(-c3ccncc3)c(C(F)(F)F)c2)cc1N1CCN(C)CC1	HepG2	%	5
COc1ccc(NC(=O)CCNc2cc(C)nc(NCCc3ccc(F)cc3)n2)cc1.O=C(O)C(F)(F)F	HepG2	%	27
O=C(Nc1cccc(-c2cccc(-c3nc4cc(C(F)(F)F)ccc4[nH]3)c2)c1)c1ccoc1	HepG2	%	32
Cc1ccc(Nc2nccc(NCC(O)c3cccc(C)c3)n2)cc1 (stereo unspecified)	HepG2	%	22
CCn1c(Cc2ccccc2)nnc1SCC(=O)N1c2ccccc2Sc2ccccc21	HepG2	%	0
CC[C@H]1CN2CCc3c([nH]c4ccccc34)[C@@H]2C[C@@H]1CC1c2cc(OC)c(OC)cc2CCN1C.Cl (stereo partly specified)	HepG2	%	31
COc1ccc(Cl)cc1N1CCN(CCCNC(=O)c2ccc(-c3nc4cc5ccccc5cc4[nH]3)c(F)c2)CC1	HepG2	%	12
CC(C)(CNCCOc1ccc(Cl)cc1)c1nc(-c2ccnc(N)n2)c(-c2ccc(Cl)c(O)c2)[nH]1.Cl	HepG2	%	45

## Input Answer with the recorded Inhibition for the compound listed here: `CN1CCN(c2ccc(-c3cccc(NC(=O)c4cccc([N+](=O)[O-])c4)c3)nn2)CC1`
## Output 21

## Input Answer with the recorded Inhibition for the compound listed here: `CN1CCN(CCCNCc2ccccc2-c2cccc(CNCc3ccc4c(c3)OCO4)c2)CC1.O=C(O)C(F)(F)F`
## Output 34

## Input Answer with the recorded Inhibition for the compound listed here: `Cc1cc(-c2ccc(CNCc3ccc(F)cc3)cc2)ccc1S(=O)(=O)NCCN1CCCC1.O=C(O)C(F)(F)F`
## Output 95

## Input Answer with the recorded Inhibition for the compound listed here: `Br.Cc1ccc(OCCCON2C(=N)N=C(N)NC2(C)C)cc1C`
## Output 57

## Input Answer with the recorded Inhibition for the compound listed here: `O=C(Nc1ccc(Cl)c(Cl)c1)Nc1ccc(F)c([N+](=O)[O-])c1`
## Output 49

## Input Answer with the recorded Inhibition for the compound listed here: `COc1ccc2nccc(N3C[C@H]4C[C@@H]3CN4CCNCc3ccc4c(n3)NC(=O)CS4)c2n1.Cl`
## Output 21

## Input Answer with the recorded Inhibition for the compound listed here: `CC(=O)Nc1sc(C)c(C)c1CN1CCc2ccccc2C1`
## Output 0

## Input Answer with the recorded Inhibition for the compound listed here: `COc1ccc2[nH]c(C)cc(=NN=Cc3ccccc3Cl)c2c1`
## Output 0

## Input Answer with the recorded Inhibition for the compound listed here: `Cc1ccc(C(=O)NCC2CCN(c3ccc(C(F)(F)F)cc3NC(=O)c3ccco3)CC2)cn1`
## Output 9

## Input Answer with the recorded Inhibition for the compound listed here: `CCOc1cc(C)ccc1C1CCN(CCCCNC(=O)c2ccc(-c3ccc(C(F)(F)F)cn3)cc2)CC1.Cl`
## Output 55
